Source: the supplement of paper PMC3334620

Target: Ecm22 (UniProt Q05958)
Sequence: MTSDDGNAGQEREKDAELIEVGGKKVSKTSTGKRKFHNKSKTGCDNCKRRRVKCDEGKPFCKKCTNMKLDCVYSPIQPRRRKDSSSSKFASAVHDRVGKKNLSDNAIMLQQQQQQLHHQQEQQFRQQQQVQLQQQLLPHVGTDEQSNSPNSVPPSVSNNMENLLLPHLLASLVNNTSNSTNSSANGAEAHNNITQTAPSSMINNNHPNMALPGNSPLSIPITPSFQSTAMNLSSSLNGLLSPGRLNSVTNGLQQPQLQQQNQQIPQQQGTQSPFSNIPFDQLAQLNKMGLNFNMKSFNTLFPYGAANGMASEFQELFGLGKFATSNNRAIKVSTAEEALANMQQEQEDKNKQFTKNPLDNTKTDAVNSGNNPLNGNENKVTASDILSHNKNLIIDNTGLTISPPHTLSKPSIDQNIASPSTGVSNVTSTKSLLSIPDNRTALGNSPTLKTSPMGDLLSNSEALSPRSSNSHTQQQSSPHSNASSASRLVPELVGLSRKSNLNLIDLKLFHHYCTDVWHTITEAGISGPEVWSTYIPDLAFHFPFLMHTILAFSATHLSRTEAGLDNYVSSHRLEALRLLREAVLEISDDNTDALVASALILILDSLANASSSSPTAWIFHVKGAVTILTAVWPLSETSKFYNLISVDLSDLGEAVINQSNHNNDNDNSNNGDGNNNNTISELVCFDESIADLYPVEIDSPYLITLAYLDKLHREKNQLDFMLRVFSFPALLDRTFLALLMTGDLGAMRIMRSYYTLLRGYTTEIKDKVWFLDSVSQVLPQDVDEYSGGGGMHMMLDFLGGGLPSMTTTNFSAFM
Experiment: PBM E-score (8-mer binding enrichment) (E-score (-0.5 to 0.5)); higher = stronger / more preferred TF binding
Settings: protein concentration: 200 nM; construct: GST-full length
Whole data set: some 33,000 sequences, median “E-score (-0.5 to 0.5)” near -0.041, cut for the highest 2% near 0.37. Only a selection was taken, and the highest values are over-represented in it overall.
Returns met if the recorded PBM E-score is greater than or equal to 0.03, and not met otherwise.

Below, 2 sequences whose answers are already recorded.
Challenge: Test whether the sequence ATTCGCGG records PBM E-score of 0.03 or higher.
Response given: not met

Challenge: Test whether the sequence ACGCCGTG records PBM E-score of 0.03 or higher.
Response given: not met

Others:
Challenge: Test whether the sequence GAGCTTAA records PBM E-score of 0.03 or higher.
Response given: met

Challenge: Test whether the sequence TCGAGGAA records PBM E-score of 0.03 or higher.
Response given: met

Challenge: Test whether the sequence GGGAACGA records PBM E-score of 0.03 or higher.
Response given: met

Challenge: Test whether the sequence ATTCGTGC records PBM E-score of 0.03 or higher.
Response given: not met

Challenge: Test whether the sequence ATACGTAC records PBM E-score of 0.03 or higher.
Response given: met

Challenge: Test whether the sequence GACGACCA records PBM E-score of 0.03 or higher.
Response given: met

Challenge: Test whether the sequence ATACGTAA records PBM E-score of 0.03 or higher.
Response given: met

Challenge: Test whether the sequence CCCGTACC records PBM E-score of 0.03 or higher.
Response given: met

Challenge: Test whether the sequence CAGCGAGA records PBM E-score of 0.03 or higher.
Response given: not met

Challenge: Test whether the sequence AGCTCGTG records PBM E-score of 0.03 or higher.
Response given: met

###

In this section we review reported PBM E-score values for a set of sequences.
Molecular target: Ecm22 (UniProt Q05958)
Sequence: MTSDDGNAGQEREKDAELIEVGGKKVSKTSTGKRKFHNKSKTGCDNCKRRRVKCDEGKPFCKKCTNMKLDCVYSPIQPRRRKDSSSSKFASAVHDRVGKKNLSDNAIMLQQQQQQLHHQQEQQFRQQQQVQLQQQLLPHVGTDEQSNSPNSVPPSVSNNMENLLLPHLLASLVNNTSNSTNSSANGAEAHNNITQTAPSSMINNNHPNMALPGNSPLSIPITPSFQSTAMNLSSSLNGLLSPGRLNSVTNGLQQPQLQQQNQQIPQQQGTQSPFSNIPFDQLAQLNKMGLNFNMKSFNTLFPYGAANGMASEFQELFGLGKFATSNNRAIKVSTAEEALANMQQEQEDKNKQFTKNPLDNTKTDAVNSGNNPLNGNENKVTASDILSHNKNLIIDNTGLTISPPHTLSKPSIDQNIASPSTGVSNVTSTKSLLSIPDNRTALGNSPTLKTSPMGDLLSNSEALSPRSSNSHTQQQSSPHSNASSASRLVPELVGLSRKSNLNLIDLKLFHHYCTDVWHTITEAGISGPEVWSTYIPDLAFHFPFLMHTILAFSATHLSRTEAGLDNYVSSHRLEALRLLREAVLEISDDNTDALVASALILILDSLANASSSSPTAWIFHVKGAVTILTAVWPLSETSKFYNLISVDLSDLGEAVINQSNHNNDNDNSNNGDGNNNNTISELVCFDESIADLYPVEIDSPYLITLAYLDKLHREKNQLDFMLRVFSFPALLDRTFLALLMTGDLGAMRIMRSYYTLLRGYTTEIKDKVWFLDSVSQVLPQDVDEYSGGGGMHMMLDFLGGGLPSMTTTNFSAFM
Assay: PBM E-score (8-mer binding enrichment) (E-score (-0.5 to 0.5)); higher = stronger / more preferred TF binding
Details: protein concentration: 200 nM; construct: GST-full length
Over roughly 33,000 sequences, “E-score (-0.5 to 0.5)” has its median near -0.041; the highest 2% begin near 0.37. This excerpt belongs to a sample that is enriched for the highest values.
Would you mind answering with just the numeric figure?

What the record says about CGCGTAGA : PBM E-score is 0.107

What the record says about ACGAGGCT : PBM E-score is 0.382

Others:
What the record says about AGGTTAGA : PBM E-score is -0.186

What the record says about CTCGTAGC : PBM E-score is 0.449

###

Target: Ecm22 (UniProt Q05958)
Sequence: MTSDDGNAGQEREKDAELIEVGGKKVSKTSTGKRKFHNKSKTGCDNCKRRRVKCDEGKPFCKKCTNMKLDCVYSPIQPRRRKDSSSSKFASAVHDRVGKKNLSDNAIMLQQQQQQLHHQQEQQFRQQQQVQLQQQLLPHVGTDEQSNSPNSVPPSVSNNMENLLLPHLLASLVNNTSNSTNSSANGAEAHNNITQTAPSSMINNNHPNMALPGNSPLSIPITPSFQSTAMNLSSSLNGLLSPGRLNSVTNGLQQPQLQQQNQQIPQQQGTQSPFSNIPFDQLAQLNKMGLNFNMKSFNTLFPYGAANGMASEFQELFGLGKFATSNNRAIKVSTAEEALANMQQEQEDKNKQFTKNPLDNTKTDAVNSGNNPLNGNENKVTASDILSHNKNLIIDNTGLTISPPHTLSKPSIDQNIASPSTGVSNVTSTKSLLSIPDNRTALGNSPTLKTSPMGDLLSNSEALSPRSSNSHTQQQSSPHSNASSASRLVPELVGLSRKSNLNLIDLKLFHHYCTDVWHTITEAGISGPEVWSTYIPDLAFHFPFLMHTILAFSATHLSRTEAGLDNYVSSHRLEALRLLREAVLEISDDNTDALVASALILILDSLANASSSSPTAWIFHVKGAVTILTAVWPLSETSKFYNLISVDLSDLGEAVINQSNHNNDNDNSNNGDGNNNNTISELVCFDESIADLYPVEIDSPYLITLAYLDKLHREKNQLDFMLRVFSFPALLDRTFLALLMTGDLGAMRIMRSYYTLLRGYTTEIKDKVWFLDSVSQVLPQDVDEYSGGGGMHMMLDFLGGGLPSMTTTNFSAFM
Assay: PBM E-score (8-mer binding enrichment) (E-score (-0.5 to 0.5)); higher = stronger / more preferred TF binding
Settings: protein concentration: 200 nM; construct: GST-full length
Whole data set: some 33,000 sequences, median “E-score (-0.5 to 0.5)” near -0.041, cut for the highest 2% near 0.37. Many of the other results were omitted from the sample, so the highest values are more common in it than they were.
In this section we review reported PBM E-score values for a set of sequences.
Would you mind answering with just the numeric figure?

As a guide, the following entries are already answered.
What the record says about CGATCAGC : PBM E-score is 0.09

What the record says about GATGTTGC : PBM E-score is 0.00895

What the record says about AGACTCAC : PBM E-score is -0.22

What the record says about CGTATGGC : PBM E-score is 0.4

Others:
What the record says about CTTTTTTA : PBM E-score is -0.19

What the record says about GGTATGGA : PBM E-score is -0.15

What the record says about CGTATGTC : PBM E-score is 0.342

What the record says about GGAGCACA : PBM E-score is -0.107

What the record says about AACAGTTA : PBM E-score is -0.1

What the record says about GGTGGAAC : PBM E-score is 0.236

What the record says about AGTATGGC : PBM E-score is -0.0838

What the record says about CCGGGTAC : PBM E-score is 0.291

What the record says about AAAGCTGT : PBM E-score is -0.108

What the record says about CCATTTTC : PBM E-score is -0.105

What the record says about AATGGGCA : PBM E-score is -0.0348

What the record says about ATCGGTCG : PBM E-score is 0.211

What the record says about AATCTGGA : PBM E-score is -0.119

What the record says about CAGTTCCA : PBM E-score is -0.0209

What the record says about CATCGTGC : PBM E-score is 0.164

What the record says about CTAAGCGA : PBM E-score is 0.385

What the record says about CATCGTTC : PBM E-score is 0.428

What the record says about TGTGTAAA : PBM E-score is -0.0334
